measured_target: human RXRα (Homo sapiens)
Sequence (P19793 1-462): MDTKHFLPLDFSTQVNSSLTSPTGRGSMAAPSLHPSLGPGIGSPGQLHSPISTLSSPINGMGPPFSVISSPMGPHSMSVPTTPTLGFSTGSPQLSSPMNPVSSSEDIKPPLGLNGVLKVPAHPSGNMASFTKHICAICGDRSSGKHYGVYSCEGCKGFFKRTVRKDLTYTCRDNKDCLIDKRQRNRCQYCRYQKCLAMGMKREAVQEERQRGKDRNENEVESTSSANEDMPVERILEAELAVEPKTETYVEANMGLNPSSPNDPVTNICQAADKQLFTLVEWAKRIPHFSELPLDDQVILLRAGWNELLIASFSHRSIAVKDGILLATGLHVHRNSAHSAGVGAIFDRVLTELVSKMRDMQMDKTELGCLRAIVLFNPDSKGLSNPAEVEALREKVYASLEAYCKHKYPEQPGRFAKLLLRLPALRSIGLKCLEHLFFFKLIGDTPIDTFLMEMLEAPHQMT
pKi: −log10 of the molar value.
reported_property: pKi

>>> experimental_value("C=C(c1cc2c(cc1C)C(C)(C)CCC2(C)C)c1ccc(C(=O)O)cc1F [Compound 18]")
6.79
>>> experimental_value("C=C(c1ccc(C(=O)O)c(F)c1)c1cc2c(cc1C)C(C)(C)CCC2(C)C [Compound 20]")
7.92
>>> experimental_value("C=C(c1ccc(C(=O)O)c([N+](=O)[O-])c1)c1cc2c(cc1C)C(C)(C)CCC2(C)C [Compound 16]")
7.09

====

measured_target: RXR (Homo sapiens, UniProt P19793)
assay_method_text: cell-based
Listing of entries alongside the reported EC50.
reported_property: EC50 (nM)

>>> experimental_value("C=C(c1cc2c(cc1C)C(C)(C)CCC2(C)C)c1ccc(C(=O)O)cc1F")
420
>>> experimental_value("C=C(c1ccc(C(=O)O)c([N+](=O)[O-])c1)c1cc2c(cc1C)C(C)(C)CCC2(C)C")
200
>>> experimental_value("C=C(c1ccc(C(=O)O)c(F)c1)c1cc2c(cc1C)C(C)(C)CCC2(C)C")
43
